target: canine CD3 on canine T cells (canine PBMC) (canine, UniProt P27597 22-202); assay: cell-based or functional assay
Sequence (P27597 22-202 limits assumed, chain 1 of 3): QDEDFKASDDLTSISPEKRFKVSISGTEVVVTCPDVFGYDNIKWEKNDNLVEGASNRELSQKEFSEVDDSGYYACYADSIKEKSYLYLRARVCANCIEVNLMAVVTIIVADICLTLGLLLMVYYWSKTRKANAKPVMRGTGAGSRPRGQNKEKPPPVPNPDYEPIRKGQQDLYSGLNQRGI
Sequence (chain, as listed by the source limits assumed, chain 2 of 3): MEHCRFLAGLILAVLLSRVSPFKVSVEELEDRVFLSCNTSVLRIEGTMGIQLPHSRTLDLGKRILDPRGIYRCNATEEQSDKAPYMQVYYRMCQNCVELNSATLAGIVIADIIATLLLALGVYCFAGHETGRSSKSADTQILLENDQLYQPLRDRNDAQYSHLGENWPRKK
Sequence (chain, as listed by the source limits assumed, chain 3 of 3): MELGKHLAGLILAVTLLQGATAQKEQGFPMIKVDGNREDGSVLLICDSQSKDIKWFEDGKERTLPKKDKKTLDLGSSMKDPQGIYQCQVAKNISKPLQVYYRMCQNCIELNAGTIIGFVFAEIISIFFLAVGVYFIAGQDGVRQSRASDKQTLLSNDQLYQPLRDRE
Assay Endpoint: CD25 Activation, Day 6, PB
Reply: number alone, nothing else.

Binder | CD25 Activation, Day 6, PB
PMX197 (monospecific anti-canine CD3, canine IgG-B effector function deficient Fc) (antibody, V domains shown) VH: ELTLQESGPGLVKPSQTLSLTCLVSGGSVTRSYYWNWIRQRPGRGLEWMGYWTGSTNYNPAFQGRISIIPDTAKNQFSLQLTSMTTDDTAIYFCAREGGRTLGAFADWGQGTLVTVSS VL: SYVLTQLPSKNVTLKQPAHITCGGDKIGSKNVHWYQQKLGQAPVLIIYYDSSRPTGIPERFSGANSGNTATLTISGALAEDEADYYCQVWDSSAKASVFGGGTHLTVL | 23.3

Prompt: Need CD25 Activation, Day 6, PB, item PMX193 (monospecific anti-canine CD3, canine IgG-B effector function deficient Fc) (antibody, V domains shown) VH: EVQLVESGGDLVKPGGSLRLSCVASGFTFSTYHMSWVRQAPGKGLQWVAYISSGGSRTNYADAVKGRFTISRDNAKNTLYLQMNSLRAEDAAVFYCARHYGSSLFDYWGQGTLVTVSS VL: DIVMTQTPLSLSVSPGEPASISCKASQSLLHINGNTYLYWFRQKPGQSPQRLIYKVSNRDPGVPDRFSGSGSGTDFTLRISRVEADDAGVYYCGQGIQDPTFGKGTHLEIK
Response: 11.1

Prompt: Need CD25 Activation, Day 6, PB, item PMX180 (monospecific anti-canine CD3, canine IgG-B effector function deficient Fc) (antibody, V domains shown) VH: ELTLQESGPGLVKPSQTLSLTCVVSGGSVTSNYYWNWIRQRPGRGLEWMGYWTGSTNYNPAFQGRISITADTAKKQFSLQLRSMTIEDTAVYYCARRGIPIFFDYWGQGTLVTVSS VL: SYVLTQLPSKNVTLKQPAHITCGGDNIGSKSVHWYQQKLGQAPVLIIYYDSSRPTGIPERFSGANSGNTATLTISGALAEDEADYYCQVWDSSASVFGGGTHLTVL
Response: 8.6
